- tested.system: T1, PTP domain of PTPN21 (residues 873–1174) (human, UniProt Q16825 873-1174)
- T1 construct: human PTPN21, PTP domain, residues 873-1174; also called PTPN21 PTP domain; PTPD1; source: E. coli, modified pPRoEX HTa, purified (Ni-NTA, TEV, second Ni-NTA); not shown: His10, N-terminal, cleaved; green fluorescent protein, N-terminal, cleaved
- T1 sequence (looked up): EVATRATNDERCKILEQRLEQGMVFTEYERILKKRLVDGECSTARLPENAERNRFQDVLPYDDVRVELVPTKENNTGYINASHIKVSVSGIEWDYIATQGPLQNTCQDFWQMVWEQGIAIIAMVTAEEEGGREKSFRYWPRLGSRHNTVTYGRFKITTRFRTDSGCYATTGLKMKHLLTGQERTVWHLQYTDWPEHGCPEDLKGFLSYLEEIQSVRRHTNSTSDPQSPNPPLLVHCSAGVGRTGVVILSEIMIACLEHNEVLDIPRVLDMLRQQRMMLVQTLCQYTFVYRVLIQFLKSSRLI
- experimental.protocol: ITC; 25 °C, VP-ITC; PTP domain titrated into MBP-tagged HPV18 E7 (0.2 mM into 10 μM in Fig 1B); 20 mM Tris-HCl pH 7.5, 100 mM NaCl, 10 mM β-mercaptoethanol; one-to-one model; triplicate
- protocol.conditions: both partners purified
outcome.measure: Kd (nM)
The response must be a number in nM with no trailing unit.

[Q] Entry MBP-tagged HPV18 E7 C-terminal domain (residues 54–105) (domain or fragment, HPV18 E7, C-terminal domain, residues 54-105; also called His6–MBP-tagged C-terminal domain of HPV18 E7; source: E. coli BL21(DE3) RIL, modified pET28a, purified; not shown: His6, N-terminal, kept; MBP, N-terminal, kept) AEPQRHTMLCMCCKCEARIKLVVESSADDLRAFQQLFLNTLSFVCPWCASQQ has what Kd?
[A] 5.81
